- TARGET_SYSTEM: Autotaxin (Homo sapiens)
- Construct: from tissue; host or cells: pooled human plasma
- MEASUREMENT_PROTOCOL: LPA formation in pooled human plasma (ex vivo autotaxin inhibition)
- Format: biochemical
- EXPERIMENTAL_CONTEXT: 2 hours incubation, LPA 20:4 by LC/MS/MS, read-out: LPA formation (20:4) (IC50)
- Procedure: Autotaxin is a plasma phosphodiesterase that converts lysophosphatidylcholine (LPC) into lysophosphatidic acid (LPA), therefore LPA formation was used to evaluate the potency of autotaxin inhibitors. The potency of compound was evaluated ex vivo in pooled human plasma. Various concentrations of compound were incubated with plasma for 2 hours, and the LPA 18:2 and 20:4 concentration was measured by LC/MS/MS. […]
pIC50: −log10 of the molar value.
Overview of recorded pIC50 for various compounds

| COMPOUND | pIC50 |
| --- | --- |
| Cc1cc(N2CCC3(CN(C(=O)[C@H]4CCOC4)C3)C2)cc2c(N(C)c3nc(-c4ccc(F)cc4)c(C#N)s3)c(C3CC3)nn12 [Example 86] | ≥ 7.00 |
| CCc1nn2ccc(N3CCN(CC(=O)N4CC[C@@H](O)C4)CC3)cc2c1N(C)c1nc(-c2ccc(F)cc2)c(C#N)s1 [Example 3] | ≥ 7.00 |
| CCc1nn2c(C)cc(N3CCN(CC(=O)N4CC(O)C4)CC3)cc2c1N(C)c1nc(-c2ccc(F)cc2)c(C#N)s1 [Example 23] | 6.30 to 7.00 |
| CCn1nc2nc(C)c(N3CC4(CN(C(=O)[C@H]5CCOC5)C4)C3)cc2c1N(C)c1nc(-c2ccc(F)cc2)c(C#N)s1 [Compound 121] | ≥ 7.00 |
| CCc1nn2c(C)cc(N3CC4(CN(C(=O)C(C)(C)O)C4)C3)cc2c1N(C)c1nc(-c2ccc(F)cc2)c(C#N)s1 [Example 30] | ≥ 7.00 |
| CCc1nn2c(C)cc(N3CC4(CCN(C(=O)C5CN(C)C5)C4)C3)cc2c1N(C)c1nc(-c2ccc(F)cc2)c(C#N)s1 [Example 47] | 6.30 to 7.00 |
